Target: T1, human PRLR on cells (endogenous on T47D, T47D#11, MCF7); introduced in HEK293/hPRLR/STAT5-Luc, 293/hPRLR, … (human, UniProt P16471 25-622)
T1 sequence: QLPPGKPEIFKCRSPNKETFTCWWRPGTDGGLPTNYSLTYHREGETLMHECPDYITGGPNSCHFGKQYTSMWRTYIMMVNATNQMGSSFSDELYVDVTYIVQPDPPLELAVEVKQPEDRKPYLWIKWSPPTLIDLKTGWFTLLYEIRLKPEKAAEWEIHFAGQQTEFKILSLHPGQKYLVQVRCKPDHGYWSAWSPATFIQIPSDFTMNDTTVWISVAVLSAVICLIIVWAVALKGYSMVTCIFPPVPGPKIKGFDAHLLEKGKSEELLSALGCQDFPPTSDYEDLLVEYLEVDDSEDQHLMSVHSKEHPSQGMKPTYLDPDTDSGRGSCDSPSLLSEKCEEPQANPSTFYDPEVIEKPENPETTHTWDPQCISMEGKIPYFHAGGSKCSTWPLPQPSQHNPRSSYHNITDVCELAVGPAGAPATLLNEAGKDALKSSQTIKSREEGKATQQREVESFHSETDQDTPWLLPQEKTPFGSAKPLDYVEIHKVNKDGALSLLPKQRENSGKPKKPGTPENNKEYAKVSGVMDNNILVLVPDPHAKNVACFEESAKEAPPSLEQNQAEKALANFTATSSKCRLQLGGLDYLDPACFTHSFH
Test: cell-based or functional assay
outcome measure: % Internalization relative to Control I (T47D cells, imaging) (%)
Reply with just the number (in %).

>>> endpoint_result("H1H6959N2 (antibody, human IgG1, V domains shown, also called H2M6959N2) VH: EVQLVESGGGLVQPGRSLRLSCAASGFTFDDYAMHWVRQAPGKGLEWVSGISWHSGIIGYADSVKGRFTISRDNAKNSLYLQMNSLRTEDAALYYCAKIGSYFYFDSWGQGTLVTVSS VL: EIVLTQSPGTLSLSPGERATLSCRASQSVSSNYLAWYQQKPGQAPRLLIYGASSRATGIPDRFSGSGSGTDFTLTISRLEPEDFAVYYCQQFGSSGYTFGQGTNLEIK")
15.3
>>> endpoint_result("H1H6966N (antibody, human IgG1, V domains shown, also called H2M6966N) VH: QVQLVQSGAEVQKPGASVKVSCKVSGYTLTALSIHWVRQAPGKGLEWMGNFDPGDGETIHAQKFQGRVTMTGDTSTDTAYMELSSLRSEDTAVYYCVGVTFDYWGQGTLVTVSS VL: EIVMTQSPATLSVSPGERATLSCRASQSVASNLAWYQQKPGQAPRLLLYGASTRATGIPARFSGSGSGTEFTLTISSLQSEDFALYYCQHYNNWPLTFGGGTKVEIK")
137

Indicate its recorded % Internalization relative to Control I (T47D cells, imaging); the binder in question is H1H6967N (antibody, human IgG1, V domains shown, also called H2M6967N) VH: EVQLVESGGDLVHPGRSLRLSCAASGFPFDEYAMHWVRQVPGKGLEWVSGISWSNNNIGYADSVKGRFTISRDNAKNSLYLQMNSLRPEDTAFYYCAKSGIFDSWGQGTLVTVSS VL: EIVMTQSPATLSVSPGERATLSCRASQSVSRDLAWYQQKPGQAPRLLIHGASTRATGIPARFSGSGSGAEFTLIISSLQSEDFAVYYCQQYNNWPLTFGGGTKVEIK 169
